These entries and their values trace back to ChEMBL document CHEMBL1145498.

Overview of reported ΔTm across a group of compounds:
Molecular target: Calcium/calmodulin-dependent protein kinase type IV (Homo sapiens) (UniProt Q16566)
Sequence (whole entry): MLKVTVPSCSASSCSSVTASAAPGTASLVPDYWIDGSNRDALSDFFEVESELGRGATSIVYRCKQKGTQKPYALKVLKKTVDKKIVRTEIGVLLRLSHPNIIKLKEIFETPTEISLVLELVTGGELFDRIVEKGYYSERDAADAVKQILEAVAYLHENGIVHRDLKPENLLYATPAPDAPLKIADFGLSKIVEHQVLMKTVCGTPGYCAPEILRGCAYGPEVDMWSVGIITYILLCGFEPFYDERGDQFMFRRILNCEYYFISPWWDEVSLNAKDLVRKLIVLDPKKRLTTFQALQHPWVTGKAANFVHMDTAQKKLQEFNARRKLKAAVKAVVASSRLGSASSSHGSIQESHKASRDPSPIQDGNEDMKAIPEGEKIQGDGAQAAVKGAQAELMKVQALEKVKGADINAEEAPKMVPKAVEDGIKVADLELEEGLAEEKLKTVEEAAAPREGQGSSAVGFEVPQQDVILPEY
property.measured: ΔTm (°C)

>>> reported_value("CN(C)c1ccc(CC2C(=O)Nc3ccccc32)cc1 (stereo unspecified)")
0.1
>>> reported_value("O=C(O)c1cc(NCc2cc(O)ccc2O)ccc1O")
0.1
>>> reported_value("CC(C)n1cnc2c(NCc3ccccc3O)nc(NCCCO)nc21")
0.1
>>> reported_value("O=C1c2ccccc2-[n+]2ccc3c([nH]c4ccccc43)c21 [FASCAPLYSIN CHLORIDE]")
0.7
>>> reported_value("CN(C)c1ncnc2nc[nH]c12 [DIMETHYLADENINE]")
0.1
>>> reported_value("Cn1cnc2c(NCc3ccccc3)nc(NCCO)nc21 [OLOMOUCINE]")
0.1
